Parameter: IC50. Scope: all listed entries.
Target: CBL-B (Homo sapiens, UniProt Q13191)
Construct: GST
Sequence (Q13191 whole entry): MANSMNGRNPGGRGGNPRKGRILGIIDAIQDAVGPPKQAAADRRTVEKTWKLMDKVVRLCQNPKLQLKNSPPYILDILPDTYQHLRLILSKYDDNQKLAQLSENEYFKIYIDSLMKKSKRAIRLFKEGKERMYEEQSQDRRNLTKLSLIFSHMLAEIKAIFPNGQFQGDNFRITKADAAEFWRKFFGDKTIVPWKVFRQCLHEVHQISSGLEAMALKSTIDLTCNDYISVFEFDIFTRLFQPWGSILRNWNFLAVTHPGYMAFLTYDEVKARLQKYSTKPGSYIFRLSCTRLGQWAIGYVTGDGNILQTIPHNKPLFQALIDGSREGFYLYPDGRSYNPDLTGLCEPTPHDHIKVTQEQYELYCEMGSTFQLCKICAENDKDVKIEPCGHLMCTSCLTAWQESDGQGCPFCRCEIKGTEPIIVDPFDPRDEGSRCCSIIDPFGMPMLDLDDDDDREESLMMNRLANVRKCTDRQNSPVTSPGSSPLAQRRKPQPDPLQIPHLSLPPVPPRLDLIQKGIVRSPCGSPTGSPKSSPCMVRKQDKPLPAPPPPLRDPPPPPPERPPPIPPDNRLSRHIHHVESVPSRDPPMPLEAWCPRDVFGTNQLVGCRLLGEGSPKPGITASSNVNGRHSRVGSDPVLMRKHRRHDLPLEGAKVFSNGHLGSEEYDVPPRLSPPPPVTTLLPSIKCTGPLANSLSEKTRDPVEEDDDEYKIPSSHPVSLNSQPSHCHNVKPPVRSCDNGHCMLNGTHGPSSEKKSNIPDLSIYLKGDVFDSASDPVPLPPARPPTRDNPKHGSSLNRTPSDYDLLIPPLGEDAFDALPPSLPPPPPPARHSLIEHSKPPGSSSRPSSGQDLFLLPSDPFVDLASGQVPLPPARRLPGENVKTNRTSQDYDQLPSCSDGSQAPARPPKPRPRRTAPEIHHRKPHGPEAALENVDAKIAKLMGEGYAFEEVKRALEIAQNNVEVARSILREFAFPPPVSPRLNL
Test: CBL-B TR-FRET IC50 screening (E1/E2 ubiquitination, Biotin-Ubiquitin, Anti GST-Tb donor / Streptavidin-d2 acceptor)
Assay type: biochemical
Conditions: CBL-B 10 nM final; 11-point titration from 100 uM; binned A-F; read-out: CBL-B TR-FRET activity IC50

>  <compound>
C[C@@H]1CN(Cc2cc(C(F)(F)F)c3cn(-c4cccc([C@]5(Cc6nncn6C)C[C@H](C#N)C5)c4)c(=O)n3c2)CCC1(F)F (single isomer, unassigned)

>  <IC50>
< 100 nM

$$$$

// sample Cn1cnnc1[C@]1(c2cccc(-n3cc4c(C(F)(F)F)cc(CN5CCc6ncsc6C5)cn4c3=O)c2)C[C@@H](C)C1 (single isomer, unassigned) , its IC50 was 100 to 300 nM

// sample C[C@@H]1CN(Cc2cc(C(F)(F)F)c3cn(-c4cccc([C@H](c5nncs5)C5CCC5)c4)c(=O)n3c2)CCO1 , its IC50 was > 10000 nM

// sample COC(=O)N1CCN(Cc2cc(C(F)(F)F)c3cn(-c4cccc([C@H](c5nncn5C)C5CCC5)c4)c(=O)n3c2)CC1 , its IC50 was < 100 nM

// sample C[C@@H](c1cc(C(F)(F)F)c2cn(-c3cccc(C4(Cc5nncn5C)COC4)c3)c(=O)n2c1)N1CC2CC2C1 (single isomer, unassigned) , its IC50 was < 100 nM

// sample Cn1cnnc1[C@@H]1C[C@@H]1c1cccc(-n2cc3c(C(F)(F)F)cccn3c2=O)c1 , its IC50 was 3000 to 10000 nM

// sample Cn1cnnc1[C@@H](c1cccc(-n2cc3c(C(F)(F)F)cc(CN4CCc5ncsc5C4)cn3c2=O)c1)C1CCC1 , its IC50 was < 100 nM

// sample Cn1cnnc1CC1(c2cccc(-n3cc4c(C(F)(F)F)cc(CN5CCNC(=O)C5)cn4c3=O)c2)COC1 , its IC50 was 100 to 300 nM

// sample Cn1cnnc1C(c1cccc(-n2cc3c(C(F)(F)F)cccn3c2=O)c1)C1COC1 (stereo not shown) , its IC50 was 1000 to 3000 nM

// sample Cn1cnnc1CC1(c2cccc(-n3cc4c(C(F)(F)F)cc(CN5CC[C@H](O)C5)cn4c3=O)c2)COC1 , its IC50 was 100 to 300 nM

// sample Cc1c[nH]nc1[C@@H](c1cccc(-n2cc3c(C(F)(F)F)cc(CN4CCO[C@H](C)C4)cn3c2=O)c1)C1CCC1 , its IC50 was 100 to 300 nM

// sample COCCN(c1cccc(-n2cc3c(C(F)(F)F)cc(CN4CCC[C@H](C)C4)cn3c2=O)c1)c1nncn1C , its IC50 was 100 to 300 nM

// sample Cn1cnnc1CC1(c2cccc(-n3cc4c(C(F)(F)F)cc(CN5CCOC(C)(C)C5)cn4c3=O)c2)COC1 , its IC50 was < 100 nM

// sample C[C@H]1CCCN(Cc2cc(C(F)(F)F)c3cn(-c4cc(F)cc([C@@H](c5nncn5C)C5CCC5)c4)c(=O)n3c2)C1 (single isomer, unassigned) , its IC50 was > 10000 nM
